Assay: NCI Yeast Anticancer Drug Screen. Data for the mlh1 rad18 strain (AID 175)
Settings: S. cerevisiae mlh1 rad18 strain growth inhibition; at 50.0 µM; stronger effect = higher value
Method: Growth inhibition of yeast strains with defined genetic alterations is measured as a screen for potential anti-cancer activity. Selected strains with alterations in DNA damage repair or cell cycle control were exposed to compounds and growth inhibition was measured relative to vehicle treated controls. The strain used in this assay is mlh1 rad18
About 79,000 compounds went through this panel and 15% of them were active in at least one assay; those are over-represented in the sample as a whole.
Readings of growth inhibition for the listed compounds
Answer with a number only, understood to be in %.

Compound	Unit Tag	Reported
O=C(O)c1cc(-c2ccc(-c3ccccc3)cc2)nc2cc3ccccc3cc12	%	22
CC1(C)OS2(OC(C)(C)c3ccccc32)c2ccccc21	%	7.65
CNc1cc(S(=O)(=O)O)ccc1C	%	-5.05

Exam item: Please report the recorded growth inhibition for CCCCCCCCCCCCCCCCCCCOc1ccc(OCCCCCCCCCCCC)cc1 .
Marked response: -15.9

Exam item: Please report the recorded growth inhibition for O=C1CN(C2CCCCC2)CC(=O)N2C(c3ccccc3)CCCN12 (stereo not given) .
Marked response: -1.85

---

Readings of growth inhibition for the listed compounds
test: NCI Yeast Anticancer Drug Screen. Data for the rad50 strain (AID 155);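 further: 0% = growth of vehicle-only cultures of the same strain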; conditions: S. cerevisiae rad50 strain growth inhibition; at 50.0 µM; stronger effect = higher value
The panel holds about 79,000 compounds, 15% with a hit somewhere; the sample as a whole holds those more often.
Answer with a number only, understood to be in %.

Exam item: Please report the recorded growth inhibition for CN1CCC(c2ccccc2)(C(O)(c2ccccc2)c2ccccc2)CC1 .
Marked response: 3.15

Exam item: Please report the recorded growth inhibition for Cc1ccc(S(=O)(=O)CCCCS(=O)(=O)c2ccc(C)cc2)cc1 .
Marked response: 1.8

Exam item: Please report the recorded growth inhibition for Cc1ccccc1NC(=S)NC(=O)c1ccccc1 .
Marked response: 30.9

Exam item: Please report the recorded growth inhibition for Cc1cc(C)c(NS(=O)(=O)c2ccc(Cl)cc2)cc1C .
Marked response: 94.5

Exam item: Please report the recorded growth inhibition for CCOC(=O)CCC(=O)c1ccc2cc(OC)ccc2c1 .
Marked response: 5.55

Exam item: Please report the recorded growth inhibition for CCOC(=O)NNC(N)=O .
Marked response: -2.8

Exam item: Please report the recorded growth inhibition for CCOC(=O)c1cnc(NCCCNc2ncc(C(=O)OCC)c(=O)[nH]2)[nH]c1=O .
Marked response: -2.65

Exam item: Please report the recorded growth inhibition for Cc1cc2c(SCc3ccccc3Cl)nc(N)nc2nc1C .
Marked response: 15.7

Exam item: Please report the recorded growth inhibition for CC(C)(C)n1nnnc1N .
Marked response: -8.55

Exam item: Please report the recorded growth inhibition for C#CC(N)=O .
Marked response: -9.6

Exam item: Please report the recorded growth inhibition for CC1CC(C#N)=C2NCCCCN2C1=O (centres undefined) .
Marked response: -21.6

Exam item: Please report the recorded growth inhibition for CCCCc1ccc(N=Nc2ccccc2)cc1 .
Marked response: -9.35

Exam item: Please report the recorded growth inhibition for CC1c2ncnc(N)c2CN1C(=O)c1ccccc1 (centres undefined) .
Marked response: 4.55

Exam item: Please report the recorded growth inhibition for N=c1c2ncn(C3OC(COP(=O)(O)O)C(O)C3O)c2ncn1O (centres undefined) .
Marked response: 12.7
